Reference source: patent US20160355483A1

Target: CYP1A2 (Homo sapiens, UniProt P05177)
Construct: purchased BD GENTEST 459100
Sequence (P05177 1-516): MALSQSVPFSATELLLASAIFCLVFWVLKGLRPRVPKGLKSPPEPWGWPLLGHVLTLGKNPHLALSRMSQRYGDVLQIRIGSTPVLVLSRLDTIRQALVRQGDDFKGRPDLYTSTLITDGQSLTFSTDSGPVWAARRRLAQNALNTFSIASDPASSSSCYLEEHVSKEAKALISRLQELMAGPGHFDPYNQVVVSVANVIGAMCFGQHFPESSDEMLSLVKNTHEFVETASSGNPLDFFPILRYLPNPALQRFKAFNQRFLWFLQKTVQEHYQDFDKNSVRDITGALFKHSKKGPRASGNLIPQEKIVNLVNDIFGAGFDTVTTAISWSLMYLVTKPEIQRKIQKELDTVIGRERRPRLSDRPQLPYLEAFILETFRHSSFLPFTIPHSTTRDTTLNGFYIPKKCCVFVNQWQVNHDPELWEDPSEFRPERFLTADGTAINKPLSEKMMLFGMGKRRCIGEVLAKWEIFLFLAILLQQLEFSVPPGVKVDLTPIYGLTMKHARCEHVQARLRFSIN
Assay: CYP (cytochrome P450)-suppressing effect, BD GENTEST kit
Assay type: in vitro ADME
property.measured: CYP(10 μL, %) 1A2

[
  {
    "smiles.repr": "C[C@H](NC(=O)c1ccc2c(c1)OCCN2Cc1ccc(-c2ccccc2C(=O)O)cc1)c1ccccc1",
    "quantity.unit": "%",
    "endpoint.value": 100.93
  },
  {
    "smiles.repr": "C[C@H](NC(=O)c1ccc2c(c1)CCCN2Cc1ccc(-c2ccccc2C(N)=O)cc1F)c1ccc([N+](=O)[O-])cc1",
    "quantity.unit": "%",
    "endpoint.value": 97.27
  },
  {
    "smiles.repr": "C[C@H](NC(=O)c1ccc2c(c1)OCCN2Cc1ccc(-c2ccccc2C(=O)O)cc1)c1ccc(C#N)cc1",
    "quantity.unit": "%",
    "endpoint.value": 102.89
  },
  {
    "smiles.repr": "C[C@H](NC(=O)c1ccc2c(c1)CCCN2Cc1cccc(-c2ccccc2C(N)=O)c1F)c1ccc([N+](=O)[O-])cc1",
    "quantity.unit": "%",
    "endpoint.value": 94.17
  },
  {
    "smiles.repr": "C[C@H](NC(=O)c1ccc2c(c1)CCCN2Cc1cccc(-c2ccccc2C(N)=O)c1)c1ccc([N+](=O)[O-])cc1",
    "quantity.unit": "%",
    "endpoint.value": 102.45
  },
  {
    "smiles.repr": "C[C@H](NC(=O)c1ccc2c(c1)CCCN2Cc1ccc(-c2ccccc2C(N)=O)cc1)c1ccc(F)cc1",
    "quantity.unit": "%",
    "endpoint.value": 98.84
  },
  {
    "smiles.repr": "C[C@H](NC(=O)c1ccc2c(c1)CCCN2Cc1ccc(-c2ccccc2C(=O)O)cc1)c1ccc(C#N)cc1",
    "quantity.unit": "%",
    "endpoint.value": 97.99
  }
]
